- experimentalTarget: GPR17 (Homo sapiens, UniProt Q13304)
- Sequence (Q13304 29-367 limits assumed): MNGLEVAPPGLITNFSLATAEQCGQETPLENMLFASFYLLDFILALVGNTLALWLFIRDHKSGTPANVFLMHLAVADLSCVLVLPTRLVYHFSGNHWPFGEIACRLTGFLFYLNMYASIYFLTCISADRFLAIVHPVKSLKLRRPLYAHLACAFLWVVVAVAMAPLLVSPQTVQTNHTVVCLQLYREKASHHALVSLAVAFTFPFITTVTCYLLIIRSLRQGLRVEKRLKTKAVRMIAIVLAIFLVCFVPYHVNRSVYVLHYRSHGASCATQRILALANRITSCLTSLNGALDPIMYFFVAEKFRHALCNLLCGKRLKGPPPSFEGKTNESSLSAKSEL
- assayProtocol: cAMP accumulation functional assay (HTRF), Schild analysis against MDL29,951 in CHO hGPR17
- Assay type: cell-based
- Parameters: host or cells: Flp-In T-REx CHO
- recordedConditions: CHO hGPR17, Schild analysis vs MDL29,951, 5 μM forskolin; read-out: cAMP assay pA2 (converted)
Each record here notes measured Kb.

Past entries and their recorded results:
Cn1cc(S(=O)(=O)Nc2cc(F)c(Br)cc2F)c2ccc(Cl)cc21 :: 3.16 to 31.6 nM
O=S(=O)(Nc1cc(F)c(Br)cc1F)c1cn(CCOCCO)c2cc(Cl)ccc12 :: 3.16 to 31.6 nM
O=S(=O)(Nc1cc(F)c(OC(F)F)cc1F)c1cn(CC(O)CO)c2cc(Cl)ccc12 (centres unmarked) :: ≤ 3.16 nM
CC(O)Cn1cc(S(=O)(=O)Nc2cc(F)c(Br)cc2F)c2ccc(Cl)cc21 (centres unmarked) :: ≤ 3.16 nM

Which Kb is reported for this molecule? Cn1cc(S(=O)(=O)Nc2cc(F)c(OC(F)F)cc2F)c2ccc(Cl)nc21
3.16 to 31.6 nM

---

- experimentalTarget: GPR17 (Homo sapiens, UniProt Q13304)
- assayProtocol: cAMP accumulation functional assay (HTRF), Schild analysis against MDL29,951 in CHO hGPR17
- Assay type: cell-based
- Parameters: host or cells: Flp-In T-REx CHO
- recordedConditions: CHO hGPR17, Schild analysis vs MDL29,951, 5 μM forskolin; read-out: cAMP assay pA2 (converted)
reportedEndpoint: Kb

Past entries and their recorded results:
COc1nc(Cl)c(F)cc1NS(=O)(=O)c1cn(CC(F)F)c2cc(Cl)ccc12 :: 3.16 to 31.6 nM
COc1nc(Cl)c(F)cc1NS(=O)(=O)c1cn(CC(O)CF)c2cc(Cl)ccc12 (centres unmarked) :: ≤ 3.16 nM
Cn1cc(S(=O)(=O)Nc2cc(F)c(OC(F)F)cc2F)c2ccc(Cl)cc21 :: 3.16 to 31.6 nM
CCCn1cc(S(=O)(=O)Nc2cc(F)c(OC(F)F)cc2F)c2ccc(Cl)cc21 :: 31.6 to 316 nM
CCn1cc(S(=O)(=O)Nc2cc(F)c(OC(F)F)cc2F)c2ccc(Cl)cc21 :: 31.6 to 316 nM
O=S(=O)(Nc1cc(F)c(Br)cc1F)c1cn(CCO)c2cc(Cl)ccc12 :: 3.16 to 31.6 nM

Which Kb is reported for this molecule? Cn1cc(S(=O)(=O)Nc2cc(F)c(Br)cc2F)c2ccc(Cl)nc21
3.16 to 31.6 nM

COc1nc(Cl)c(F)cc1NS(=O)(=O)c1cn(C)c2cc(Cl)ccc12 ?
3.16 to 31.6 nM

---

- experimentalTarget: GPR17 (Homo sapiens)
- assayProtocol: cAMP accumulation functional assay (HTRF), Schild analysis against MDL29,951 in CHO hGPR17
- Format: cell-based
- Set-up: host or cells: Flp-In T-REx CHO
- recordedConditions: CHO hGPR17, Schild analysis vs MDL29,951, 5 μM forskolin; read-out: cAMP assay pA2 (converted)
reportedEndpoint: Kb

Past entries and their recorded results:
O=S(=O)(Nc1cc(F)c(Br)cc1F)c1cn(CCCO)c2cc(Cl)ccc12 :: 0.0316 to 0.316 µM
O=S(=O)(Nc1cc(F)c(Br)cc1F)c1cn(CC(F)CO)c2nc(Cl)ccc12 (stereo not shown) :: 0.0316 to 0.316 µM
O=S(=O)(Nc1cc(F)c(Br)cc1F)c1cn(CC(O)CO)c2cc(Cl)ccc12 (stereo not shown) :: 0.00316 to 0.0316 µM

Now, please, on to the next molecule.
Which Kb is reported for this molecule? [N-]=[N+]=NCCn1cc(S(=O)(=O)Nc2cc(F)c(Br)cc2F)c2ccc(Cl)cc21
0.0316 to 0.316 µM

# credit: patent US12358875B2
